Cited source for all entries: PubChem BioAssay AID1159580

test: chemical genetic growth profiling, strain panel (AID 1159580);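 further: tested at 20 µM; growth read once vehicle control cultures reached saturation at 30 °C; lower values mean less growth of the strain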; conditions: S. cerevisiae deletion strains, growth OD, locus YKL190W, strain CNB1
The campaign covered roughly 5,500 compounds. About 2,000 (36%) were called active. About 18% were inconclusive and are not listed. No stated cut-off is given here; in the data, active means normalized growth mostly below about 0.91 (no sharp cut-off); inconclusive means no clear call, values can overlap the other calls; inactive means mostly above about 0.92. Some of the results follow.
Choose the fitting class; nothing outside y for active, n for inactive is accepted.

Cc1ccccc1OCC(O)CO (stereo not given) | n
COc1ccc2c(c1)CCC1C2CC[C@@]2(C)C1CC[C@@H]2O (stereo not given in full) | y
CC1CC[C@@]2(OC1)O[C@H]1CC3C4CC[C@@H]5C[C@@H](O)CC[C@]5(C)C4CC[C@]3(C)[C@H]1[C@@H]2C (stereo not given in full) | n
CC1(C)C2CC(=O)[C@]3(C)C(CC[C@@]4(C)[C@H](c5ccoc5)OC(=O)C5OC543)[C@@]2(C)[C@@H](O)C[C@H]1O (stereo not given in full) | n
NC(=NCCC[C@H](N)C(=O)O)N[N+](=O)[O-] | n

Query string: Which outcome did this test record for the compound "Cc1cc(C2CCCCC2)n(O)c(=O)c1" ?
Result string: y

Query string: Could you check what this test reported for "COc1c2ccoc2cc2oc(=O)ccc12" ?
Result string: y

Query string: So what was the verdict on "CC/C(=C(/CC)c1ccc(O)cc1)c1ccc(O)cc1" in this test?
Result string: n

Query string: Recorded test outcome, item CC1CCC2(OC1)OC1CC3C4CC[C@H]5C[C@@H](O)CC[C@]5(C)C4CC(=O)[C@]3(C)C1C2C (stereo not given in full)
Result string: n

Query string: For this compound, state the assay outcome: "CSc1nsc(SC)c1C(=O)NC(=O)Nc1ccc(F)cc1F"
Result string: n

Query string: What was the test verdict on "NC(N)=NC(=O)c1nc(Cl)c(N)nc1N" ?
Result string: n

Query string: Any idea what this test logged for "Cn1c2c(c3c1CCCC3)CCCC2" ?
Result string: n
